# ASSAY SYSTEM: CYP17A1 (Homo sapiens, UniProt P05093)
# Construct: recombinant human CYP17A1, purified
# Sequence (P05093 1-508): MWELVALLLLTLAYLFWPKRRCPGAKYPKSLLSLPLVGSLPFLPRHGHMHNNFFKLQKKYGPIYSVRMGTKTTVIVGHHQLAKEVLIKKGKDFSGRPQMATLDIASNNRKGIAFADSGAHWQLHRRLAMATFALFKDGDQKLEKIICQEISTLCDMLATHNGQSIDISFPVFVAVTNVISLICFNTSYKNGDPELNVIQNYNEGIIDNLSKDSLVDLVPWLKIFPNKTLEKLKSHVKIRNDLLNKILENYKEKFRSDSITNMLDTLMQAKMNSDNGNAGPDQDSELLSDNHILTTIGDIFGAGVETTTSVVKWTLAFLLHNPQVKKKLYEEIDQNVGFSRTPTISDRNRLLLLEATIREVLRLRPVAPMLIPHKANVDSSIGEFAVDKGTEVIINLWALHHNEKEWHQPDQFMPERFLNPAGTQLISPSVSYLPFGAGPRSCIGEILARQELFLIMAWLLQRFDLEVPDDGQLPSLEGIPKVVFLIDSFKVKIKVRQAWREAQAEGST
# ASSAY NOTES: UV-Vis spectrophotometric titration (type I spectral response)
# Assay type: binding
MEASUREMENT KIND: Kd

INSERT INTO results (smiles, assay_result) VALUES
  ('CC(=O)[C@H]1CC[C@H]2[C@@H]3CCC4=CC(=O)CC[C@]4(C)[C@H]3CC[C@]12C', '< 1000 nM');
